# target: GABARAPL2 (UniProt P60520 1-117)
# Sequence (P60520 whole entry): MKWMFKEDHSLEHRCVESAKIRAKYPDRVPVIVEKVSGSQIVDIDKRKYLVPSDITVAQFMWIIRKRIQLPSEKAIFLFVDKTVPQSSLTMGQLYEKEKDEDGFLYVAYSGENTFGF
# protocol summary: FP
pKd: −log10 of the molar value. Square brackets hold non-standard residues; d marks the D form. Ends that are not written are not given here. pS = N[C@@H](COP(=O)(O)O)C(=O)O
measurement kind: pKd

(a) TASDD[pS]DIVTLEPPK (also: N-terminal FITC in fluorescence polarisation assay only) [phospho-CCPG1 FIR2 synthetic peptide (p-CCPG1 FIR2)]
(b) TASDDSDIVTLEPPK (also: N-terminal FITC only in fluorescence polarisation assay form) [CCPG1 FIR2 synthetic peptide (residues 99–113)]
q: Pick one: a or b . Which one has the lower reported pKd? Pick one and reply with its label.
a: b
